Each recorded value in this set is attributed to PubChem BioAssay (NCI).

Experiment: NCI Yeast Anticancer Drug Screen. Data for the mlh1 rad18 strain (AID 175)
Conditions: S. cerevisiae mlh1 rad18 strain growth inhibition; at 50.0 µM
Experimental: Growth inhibition of yeast strains with defined genetic alterations is measured as a screen for potential anti-cancer activity. Selected strains with alterations in DNA damage repair or cell cycle control were exposed to compounds and growth inhibition was measured relative to vehicle treated controls. The strain used in this assay is mlh1 rad18
About 79,000 compounds went through this panel and 15% of them were active in at least one assay; those are over-represented in the sample as a whole. The source made the active and inactive calls. Rule as the data show it: active = growth inhibition above about 70%; inactive = the rest.
Give one outcome, nothing more. List: yes (1) (active), no (0) (inactive)

Please review the entries below; each comes with its answer.
molecule=CC1(C)CN1C1=C(F)C(=O)C(N2CC2(C)C)=C(F)C1=O assigned_category="yes (1)"
molecule=CCCCCCCCCCCCCCCC[As](=O)(O)CCCCCCCCCCCCCCCC assigned_category="no (0)"
molecule="O=C1CC=C2C3CC4N(CCC45c4ccccc4N1C25)C/C3=C\\CO (stereo not given)" assigned_category="no (0)"
molecule="O=[N+]([O-])c1ccc(SC2CCCCCCC2Br)c([N+](=O)[O-])c1 (stereo not given)" assigned_category="no (0)"
molecule=O=C(N/N=C/c1ccc(N(CCCl)CCCl)cc1)c1ccc(N(CCCl)CCCl)cc1 assigned_category="no (0)"

In: Please share the test call associated with `c1c2c(cc3c1OCO3)-c1cc3ccc4c(c3c[n+]1CC2)OCO4` .
Out: no (0)

In: Would you kindly repeat that for C[N+]12CCC(c3ccccc3)(CC1)C(O)C2 (stereo not given) ?
Out: no (0)

In: // same read-out, input: CCCCCCCCCCCCCCCC[As](CCCCCCCCCCCCCCCC)SCC1OC(OC(C)=O)C(OC(C)=O)C(OC(C)=O)C1OC(C)=O (stereo not given)
Out: no (0)

In: And what about the molecule CC(C)(C)C1=C(Br)C(Br)(C(C)(C)C)OP1(=O)c1ccccc1 (stereo not given) ?
Out: no (0)

In: Moving on to `CC(C)c1ccc(CCN)cc1`
Out: no (0)

---

Experiment: NCI Yeast Anticancer Drug Screen. Data for the sgs1 mgt1 strain (AID 161);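 also: 0% = growth of cultures given vehicle only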
Settings: S. cerevisiae sgs1 mgt1 strain, at 50.0 µM
Protocol: Growth inhibition of yeast strains with defined genetic alterations is measured as a screen for potential anti-cancer activity. Selected strains with alterations in DNA damage repair or cell cycle control were exposed to compounds and growth inhibition was measured relative to vehicle treated controls. The strain used in this assay is sgs1 mgt1
Compounds without any hit were thinned out: in the full panel of roughly 79,000, 15% have a hit. Calls of active or inactive are those of the source. Cut-off read from the data, not from the text of the source: active = growth inhibition above about 70%; inactive = the rest.
Outcomes you can answer with include only these: active, inactive

Consider the following illustrative entries.
compound="Oc1ccc(CC2NCCc3cc(O)c(O)cc32)cc1O (stereo not given)" assigned_category=inactive
compound=O=C1CCCN1CC#CCN1CCCC1 assigned_category=inactive

In: Dear colleague, could you share the recorded outcome for `CC(C)OP(=S)(Oc1ccc(Cl)cc1Cl)OC(C)C` when you have a moment?
Out: inactive

In: Same thing, different compound: CN(C)P1(=O)OCC(C(C)(C)C)CN1c1ccccc1 (stereo not given)
Out: inactive

In: Here is the next compound: `BrCCCBr`
Out: inactive

In: Also check `CCOC(OCC)c1ccccc1.[C-]#[O+].[C-]#[O+].[C-]#[O+].[Cr]`
Out: inactive

In: And `O=C1OC(c2ccccc2)(c2ccccc2)C(=O)OC1(c1ccccc1)c1ccccc1` ?
Out: inactive

In: Follow-up item: `Cc1cc(CCl)c(O)c(CCl)c1`
Out: inactive

In: And what about the compound `CCN(CC)c1cccc(OC(=O)NC)c1` ?
Out: inactive

In: Now give it for [I][Hg][CH]1CCC2CCCC1O2 (stereo not given) too.
Out: active

In: Now the same for `CCN(CC)c1ccc([P+](=O)O)cc1`
Out: inactive

In: // same read-out, input: `Nc1c(Cl)c(Cl)nc(C(=O)O)c1Cl`
Out: inactive

In: Same for `CCOP(=O)(O)SP(=O)(O)OCC.[Zn+2]`
Out: inactive

In: Proceed to `c1ccc(-c2ccc[n+](CC[n+]3cccc(-c4ccccn4)c3)c2)nc1`
Out: inactive

---

experiment: NCI Yeast Anticancer Drug Screen. Data for the mlh1 rad18 strain (AID 175); details: S. cerevisiae mlh1 rad18 strain growth inhibition; at 50.0 µM
Compounds without any hit were thinned out: in the full panel of roughly 79,000, 15% have a hit. Activity calls are given as the source filed them. Rule as the data show it: active = growth inhibition above about 70%; inactive = the rest.
Select the correct class. Options are yes (1) for active, no (0) for inactive and nothing else.

compound=O=NNc1cnc2ccccc2n1 assigned_category="no (0)"
compound=O.[Cr+3].[NH2-].[NH2-].[NH2-].[NH2-].[NH2-].[O-][Cl+3]([O-])([O-])O assigned_category="no (0)"
compound="CC12CC/C(=N/NC(=O)Cc3c[nH]c4ccccc34)C=C1CCC1C2CCC2(C)C(OC(=O)c3ccccc3)CCC12 (configuration not stated)" assigned_category="no (0)"

In: Look up the recorded call for `O=C1NC(=O)C(Cc2cccc(OCc3ccccc3)c2)C(=O)N1` in this test.
Out: no (0)

In: Entry N#CC(C#N)C1CN2CCC1CC2 (configuration not stated) please
Out: no (0)

In: Moving on to the next compound: `Cc1ccc(N=C(C(c2ccccc2)c2ccccc2)N(CCCl)CCCl)cc1`
Out: no (0)

---

Give measured growth inhibition for each item. Keep answers brief.
test: NCI Yeast Anticancer Drug Screen. Data for the bub3 strain (AID 167); conditions: S. cerevisiae bub3 mutant strain, at 50.0 µM, active compounds read high
The panel holds about 79,000 compounds, 15% with a hit somewhere; the sample as a whole holds those more often.
One number for each entry, in %.

Known growth inhibition results, listed for orientation:
compound="Cc1ccc2c(c1)C(=S)N1CSCC1c1nncn1-2 (centres undefined)" endpoint="growth inhibition" endpoint_value=13.4
compound="CCCCCCNC1C=CCC1 (centres undefined)" endpoint="growth inhibition" endpoint_value=5.15
compound="CCCCC(C(=O)NN)P(=O)(OCC)OCC (centres undefined)" endpoint="growth inhibition" endpoint_value=-1.95
compound=C[C@]12CC[C@H](O[C@@H]3O[C@H](CO[C@@H]4O[C@H](CO)[C@@H](O)[C@H](O)[C@H]4O)[C@@H](O)[C@H](O)[C@H]3O)C[C@@H]1CC[C@@H]1[C@@H]2CC[C@]2(C)[C@@H](C3=CC(=O)OC3)CC[C@]12O endpoint="growth inhibition" endpoint_value=-1.95
compound=COc1ccc(OC)c(CCc2cc(OC)ccc2OC)c1 endpoint="growth inhibition" endpoint_value=13.2
compound=CC(C)CNC12CN3CN(CN(C3)C1)C2 endpoint="growth inhibition" endpoint_value=-4.85

I would be grateful if you could provide growth inhibition for each of the following entries.
1. CP1(=O)CC23CCCCC2(C1)O3 (centres undefined)
2. [CH3][Sb]1([CH3])([I])[CH2]CC[CH2]1

Out:
1. -15
2. 27.2

---

Please go through the items and note down their growth inhibition.
assay: NCI Yeast Anticancer Drug Screen. Data for the bub3 strain (AID 167); conditions: S. cerevisiae bub3 mutant strain, at 50.0 µM, active compounds read high
This is part of a sample that, as a whole, favours compounds with a hit. Of some 79,000 tested, about 15% had one in any assay.
Give bare numbers, in %.

Example cases with answers are listed next.
compound="S=C1c2ccc(Cl)cc2-n2cnnc2C2CSCN12 (centres undefined)" endpoint="growth inhibition" endpoint_value=-6.1
compound="CC(=O)NC1C([Se][As](C)C)OC(COC(C)=O)C(OC(C)=O)C1OC(C)=O (centres undefined)" endpoint="growth inhibition" endpoint_value=-2.95
compound="COc1ccc2c(c1)CCC1C2CCC2(C)C1CCC21CCNP(=O)(N(CCCl)CCCl)O1 (centres undefined)" endpoint="growth inhibition" endpoint_value=22.4

In: Given `C=C(CC(=O)O)C(=O)O` , state its recorded growth inhibition.
Out: 6.05

---

test: NCI Yeast Anticancer Drug Screen. Data for the rad50 strain (AID 155);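 also: 0% = growth of vehicle-only cultures of the same strain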; details: S. cerevisiae rad50 strain growth inhibition; at 50.0 µM; active compounds read high
Compounds without any hit were thinned out: in the full panel of roughly 79,000, 15% have a hit.
Kindly state growth inhibition for each of the entries shown.
One number for each entry, in %.

Below, each entry is followed by its recorded growth inhibition result.
compound=[Se]=P(NC1CCCCC1)(NC1CCCCC1)NC1CCCCC1 units_text=% endpoint_value=14.5
compound=[C-]#[N+]CS(=O)(=O)c1ccc(C)cc1 units_text=% endpoint_value=-17.4
compound="Cc1ccc(N2CCNCC2C)cc1 (stereo unspecified)" units_text=% endpoint_value=6.15

I'm hoping you can list growth inhibition for every compound here, please.
1. CNC(=O)Oc1cccc2c(OC3OC(CO)C(O)C(O)C3O)cccc12 (stereo unspecified)
2. CC(=O)c1cn(Cc2ccccc2)c2ccccc12
3. CC(=O)OC1CCC2(C)C(=CCC3C4C/C(=C\N5CCCC5)C(=O)C4(C)CCC32)C1 (stereo unspecified)
4. N#CC(OC1OC(C(=O)O)C(O)C(O)C1O)c1ccccc1 (stereo unspecified)
5. C[C@]12CCC(=O)C=C1CC[C@@H]1[C@@H]2CC[C@]2(C)C(=O)[C@H](n3ccnc3)C[C@@H]12
6. CCOP(O)(=S)OCC.[Sm]
7. COc1ccc2c(c1OC)C[N+]1(C)CCc3cc4c(cc3C1=C2)OCO4 (stereo unspecified)
8. NC(=O)c1cc(N(CCCl)CCCl)c([N+](=O)[O-])cc1[N+](=O)[O-]

Out:
1. -25.5
2. 5.75
3. 51
4. 17.2
5. -1.35
6. 1.65
7. 21.6
8. 38.9

Hi there! I need growth inhibition for each item below, if you can.
1. CNP1(N(C)C)=NP(NC)(N(C)C)=NP(NC)(N(C)C)=N1 (stereo unspecified)
2. COc1cc(C2c3cc4c(cc3C(O)[C@H]3COC(=O)[C@@H]23)OCO4)cc(OC)c1O (stereo partly specified)
3. CC(C)c1ccc(CCN)cc1
4. CC(C)C(C)(O)C#N (stereo unspecified)
5. O=P1(N2CCCCC2)OCC2(CO1)COP(=O)(N1CCCCC1)OC2 (stereo unspecified)

Out:
[-13.9, -36.4, 6.25, 2.2, -7.15]
